# Tested on: SCC4 OSCC cell line
# EXPERIMENT NOTES: MTT cell viability assay (cytotoxicity), SCC4
# Format: cell-based, human
# CONDITIONS: IC50 normal oral fibroblasts / IC50 SCC4
METRIC NAME: SCC4 S.I.

compound="COc1cccc2c1C(=O)c1c(O)c3c(c(O)c1C2=O)C[C@@](O)(C(=O)CO)C[C@@H]3O[C@H]1C[C@H](N)[C@H](O)[C@H](C)O1 [Doxorubicin, doxorubicin]" endpoint_result=2.7
compound="CC(C)=CC[C@@H](O)C1=CC(=O)c2c(O)ccc(O)c2C1=O [Shikonin, shikonin]" endpoint_result=0.8
compound="N.N.O=C([O-])C1(C(=O)[O-])CCC1.[Pt+2] [Carboplatin, carboplatin]" endpoint_result=3.1
compound="COc1cc(C2C3=C(CC(C)(C)CC3=O)NC3=C2C(=O)c2ccccc2C3=O)cc(OC)c1OC (stereo not shown) [4m]" endpoint_result=0.7
compound="CC1(C)CC(=O)C2=C(C1)NC1=C(C(=O)c3ccccc3C1=O)C2c1ccc(Cl)cc1Cl (stereo not shown) [4e]" endpoint_result=1.6
compound="CC(C)=CCC1=C(O)C(=O)c2ccccc2C1=O [Lapachol, lapachol]" endpoint_result=1.4
compound="COc1ccc(C2C3=C(CC(C)(C)CC3=O)NC3=C2C(=O)c2ccccc2C3=O)c(OC)c1 (stereo not shown) [4j]" endpoint_result=1.2

----------
# EXPERIMENT NOTES: MTT cell viability assay, normal fibroblasts
# Assay type: cell-based, human
# CONDITIONS: human, primary normal human gingival fibroblasts (ATCC PCS-201-018)
METRIC NAME: viability at 48 h

compound="COc1ccc(C2C3=C(CC(C)(C)CC3=O)NC3=C2C(=O)c2ccccc2C3=O)c(OC)c1 (stereo not drawn) [4j]" endpoint_result="> 75%"
compound="CC1(C)CC(=O)C2=C(C1)NC1=C(C(=O)c3ccccc3C1=O)C2c1ccc(Cl)cc1Cl (stereo not drawn) [4e]" endpoint_result="> 75%"
compound="COc1cc(C2C3=C(CC(C)(C)CC3=O)NC3=C2C(=O)c2ccccc2C3=O)cc(OC)c1OC (stereo not drawn) [4m]" endpoint_result="> 75%"
